Entries and their IC50
biological target: Stromelysin-1 (Homo sapiens, UniProt P08254); assay: In vitro inhibition activity of human recombinant stromelysin (Matrix metalloprotease-3)
Sequence (P08254 whole entry): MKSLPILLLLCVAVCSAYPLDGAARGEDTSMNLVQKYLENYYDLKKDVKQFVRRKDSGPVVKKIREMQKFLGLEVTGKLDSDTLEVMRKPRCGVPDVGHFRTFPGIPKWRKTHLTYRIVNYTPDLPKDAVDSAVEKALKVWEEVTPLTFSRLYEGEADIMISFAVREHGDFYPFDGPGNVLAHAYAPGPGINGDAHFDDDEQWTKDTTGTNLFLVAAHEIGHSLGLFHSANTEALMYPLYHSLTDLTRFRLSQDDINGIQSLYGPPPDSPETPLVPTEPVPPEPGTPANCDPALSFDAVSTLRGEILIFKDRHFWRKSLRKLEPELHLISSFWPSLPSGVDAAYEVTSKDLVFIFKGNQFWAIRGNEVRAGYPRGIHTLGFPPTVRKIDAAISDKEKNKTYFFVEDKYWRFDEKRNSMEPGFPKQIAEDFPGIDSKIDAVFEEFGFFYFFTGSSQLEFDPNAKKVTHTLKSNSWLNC
Please respond with the number in nM and leave the unit unwritten.

Solved cases below.
- COMPOUND: "CCCCOc1ccc(S(=O)(=O)N2C/C(=N\\OCC(C)C)C[C@@H]2C(=O)NO)cc1"
  IC50 / nM: 12
- COMPOUND: "CO/N=C1/C[C@H](C(=O)NO)N(S(=O)(=O)c2ccc(Oc3ccncc3)cc2)C1"
  IC50 / nM: 5
- COMPOUND: "C=C1C[C@H](C(=O)NO)N(S(=O)(=O)c2ccc(OCCC)cc2)C1"
  IC50 / nM: 16
- COMPOUND: "CCCCOc1ccc(S(=O)(=O)N2C/C(=N\\N3CCOCC3)C[C@@H]2C(=O)NO)cc1"
  IC50 / nM: 2
- COMPOUND: "CCCCOc1ccc(S(=O)(=O)N2CC(NOC)C[C@@H]2C(=O)NO)cc1 (stereo not given in full)"
  IC50 / nM: 21
- COMPOUND: "CCCCOc1ccc(S(=O)(=O)N2C/C(=N\\OC(C)(C)C)C[C@@H]2C(=O)NO)cc1"
  IC50 / nM: 11

Fill blank: measured IC50 of the compound "CCCCOc1ccc(S(=O)(=O)N2C/C(=N\O)C[C@@H]2C(=O)NO)cc1" is ____.
5

// same read-out, input: "CC(C)(C)O/N=C1/C[C@H](C(=O)NO)N(S(=O)(=O)c2ccc(Oc3ccncc3)cc2)C1"
5

// same read-out, input: "CCCOc1ccc(S(=O)(=O)N2C/C(=N\OC)C[C@@H]2C(=O)NO)cc1"
2

// same read-out, input: "COc1ccc(S(=O)(=O)N2C/C(=N\O)C[C@@H]2C(=O)NO)cc1"
5

====

biological target: Stromelysin-1 (Homo sapiens, UniProt P08254); experiment: In vitro inhibition activity of human recombinant stromelysin (Matrix metalloprotease-3)
PROPERTY: pIC50
Lab note — pIC50 values are minus log10 of concentrations in M.

Solved cases below.
- CHEM_SMILES: "CCCCOc1ccc(S(=O)(=O)N2C/C(=N\\N3CCNCC3)C[C@@H]2C(=O)NO)cc1"
  pIC50: 8.52
- CHEM_SMILES: "CCOc1ccc(S(=O)(=O)N2C/C(=N\\OC)C[C@@H]2C(=O)NO)cc1"
  pIC50: 7.80

Now consider a different compound.
Fill blank: measured pIC50 of the compound "C=C1C[C@H](C(=O)NO)N(S(=O)(=O)c2ccc(OCCCC)cc2)C1" is ____.
7.82
